# ASSAY SYSTEM: Pantothenate synthetase (Mycobacterium tuberculosis (strain ATCC 25618 / H37Rv))
# ASSAY OVERVIEW: Coupled enzyme confirmation of inhibitors against recombinant Mtb PanC (AID 375);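 note: 0% = full reaction with vehicle and 100% = no enzyme background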
# CONDITION LABEL: coupled enzyme assay; at 10 µM, stronger effect = higher value
RECORDED METRIC: inhibition (%)
Give bare numbers, in %.

Record excerpt, results attached:
COC(=O)c1cc(NC(=O)C2COc3ccccc3O2)cc(C(=O)OC)c1 (stereo unspecified)	0
COCc1nnc(SCC(=O)NC(C)c2ccccc2)n1-c1ccccc1 (stereo unspecified)	4
CCOc1ccc(C(=O)N2CCN(C(=O)c3ccco3)CC2)cc1OCC	1
CC(=O)c1sc(NC(=O)C2COc3ccccc3O2)nc1C (stereo unspecified)	3
CCCCCn1c(=O)[nH]c2cc(C(=O)NCCCN3CCCCC3)ccc2c1=O	3

Value sought for every listed molecule: inhibition.
1. COc1ccc2c(c1)C1(C)CC(C)(C)N2C(=O)N1c1ccccc1 (stereo unspecified)
2. CCN1CCN(C(=O)c2ccc3c(=O)n(CCC4=CCCCC4)c(=O)[nH]c3c2)CC1
3. CSc1cccc(NC(=O)CN(C)S(=O)(=O)c2ccccc2)c1
4. O=C(c1cc(C2CC2)on1)N1CCN(C(c2ccccc2)c2ccccc2)CC1
5. COc1ccc2nc3oc(C(=O)N4CCCCC4)cc3cc2c1
6. CC1=C(C)C(=O)C(CCCCC#CCCCC#CCO)=C(C)C1=O

-- reply
1: 4; 2: 0; 3: 0; 4: 0; 5: 12; 6: 6
